test system: Pseudomonas putida; test: Antibacterial activity against Pseudomonas putida by broth dilution assay; type: functional, organism-based
Calls of active or inactive are those of the source. The calls are words filed in the database; no cut-off is given here.

{"columns": ["molecule", "Activity"],
 "data": [
  ["CC(=O)OCC(C)/C=C/[C@@H](C)[C@H]1CC[C@H]2[C@@H]3CC(=O)[C@@]4(O)C[C@@H](O)CC[C@]4(C)[C@H]3CC[C@]12C (some centres undefined)", "inactive"],
  ["CC(=O)OC[C@@H](C)C/C=C/[C@@H](C)[C@H]1CC[C@H]2[C@@H]3CC(=O)[C@@]4(O)C[C@@H](O)CC[C@]4(C)[C@H]3CC[C@]12C", "inactive"],
  ["CC(=O)OC[C@@H](C)[C@H](C)/C=C/[C@@H](C)[C@H]1CC[C@H]2[C@@H]3CC(=O)[C@@]4(O)C[C@@H](O)CC[C@]4(C)[C@H]3CC[C@]12C", "inactive"],
  ["CC(=O)OC[C@H](C)[C@H](C)/C=C/[C@@H](C)[C@H]1CC[C@H]2[C@@H]3CC(=O)[C@@]4(O)C[C@@H](O)CC[C@]4(C)[C@H]3CC[C@]12C", "inactive"]
]}

###

experiment: Cytotoxicity against mock-infected human Hep2 cells by XTT assay; format: cell-based, HEp-2; details: read-out: TC50 (the source's name)
As shown below, each of these compounds has a reported CC50 value.
Use µM as the unit, but write only the number.

Previously resolved entries follow.
{"columns": ["compound", "CC50 (µM)"],
 "data": [
  ["CC(=O)OC[C@@H](C)[C@H](C)/C=C/[C@@H](C)[C@H]1CC[C@H]2[C@@H]3CC(=O)[C@@]4(O)C[C@@H](O)CC[C@]4(C)[C@H]3CC[C@]12C", 0.38],
  ["CC(=O)OC[C@H](C)[C@H](C)/C=C/[C@@H](C)[C@H]1CC[C@H]2[C@@H]3CC(=O)[C@@]4(O)C[C@@H](O)CC[C@]4(C)[C@H]3CC[C@]12C", 24.4]
]}

// sample CC(=O)OCC(C)/C=C/[C@@H](C)[C@H]1CC[C@H]2[C@@H]3CC(=O)[C@@]4(O)C[C@@H](O)CC[C@]4(C)[C@H]3CC[C@]12C (stereo not given in full) , its CC50 was 12.9

// sample `CC(=O)OC[C@@H](C)C/C=C/[C@@H](C)[C@H]1CC[C@H]2[C@@H]3CC(=O)[C@@]4(O)C[C@@H](O)CC[C@]4(C)[C@H]3CC[C@]12C` , its CC50 was 12.6

###

As shown below, each of these compounds has a reported selectivity ratio value.
experiment: Therapeutic ratio of TC50 for mock-infected human Hep2 cells to IC50 for Respiratory syncytial virus infected in human Hep2 cells; type: ADME, cell-based, HEp-2; details: read-out: TI
Reply with the value as a number alone.

Previously resolved entries follow.
{"columns": ["compound", "selectivity ratio"],
 "data": [
  ["CC(=O)OC[C@H](C)[C@H](C)/C=C/[C@@H](C)[C@H]1CC[C@H]2[C@@H]3CC(=O)[C@@]4(O)C[C@@H](O)CC[C@]4(C)[C@H]3CC[C@]12C", 128],
  ["CC(=O)OC[C@@H](C)C/C=C/[C@@H](C)[C@H]1CC[C@H]2[C@@H]3CC(=O)[C@@]4(O)C[C@@H](O)CC[C@]4(C)[C@H]3CC[C@]12C", 16],
  ["CC(=O)OCC(C)/C=C/[C@@H](C)[C@H]1CC[C@H]2[C@@H]3CC(=O)[C@@]4(O)C[C@@H](O)CC[C@]4(C)[C@H]3CC[C@]12C (stereo not given in full)", 4]
]}

We now examine a further compound.
// sample `CC(=O)OC[C@@H](C)[C@H](C)/C=C/[C@@H](C)[C@H]1CC[C@H]2[C@@H]3CC(=O)[C@@]4(O)C[C@@H](O)CC[C@]4(C)[C@H]3CC[C@]12C` , its selectivity ratio was 2
